Taken from patent EP4647082A1.

Experiment: Phase I first-in-human study, pharmacokinetics after single ascending subcutaneous doses in healthy volunteers
Type: in vivo
Conditions: human, plasma; single SC dose 4 mg; mean
Bridge positions count the residues as written; N and C are the ends. Square brackets hold non-standard residues; d marks the D form. Peptide text beside a SMILES is read from it. * marks the point of attachment. Phe(2-CONH2) = NC(=O)c1ccccc1C[C@H](N)C(=O)O; Orn(iPr) = CC(C)NCCC[C@H](N)C(=O)O; Oxazole2carbonyl = O=C(c1ncco1)*; 3Pal = N[C@@H](Cc1cccnc1)C(=O)O
Measure: AUC(0-inf) (ng·h/mL)
Field format: number, assumed ng·h/mL, no unit text.

Need AUC(0-inf) of CC(C)NCCC[C@@H]1NC(=O)[C@@H](NC(=O)[C@H](Cc2ccccc2C(N)=O)NC(=O)[C@H](NC(=O)c2ncco2)C(C)C)CSSC[C@@H](C(=O)N[C@@H](Cc2cccnc2)C(N)=O)NC(=O)[C@H](Cc2ccccc2)NC(=O)[C@@H]2CCCN2C(=O)CNC(=O)[C@H](C(C)C)NC(=O)[C@H](CC(=O)O)NC1=O [AXN-001] (Oxazole2carbonyl-[dV][Phe(2-CONH2)]C[Orn(iPr)]DVGPFC[3Pal]-NH2; disulfide 3-10) , thanks.
343
